These data points were gathered from ChEMBL document CHEMBL4433202.

Assay: Permeability of the compound at 25 ug/ml after 18 hrs by PAMPA-BBB assay
The following compounds are listed with their measured Papp at 18 h, 25 ug/ml values.
State the answer as a number, implicitly in ×10⁻⁶ cm/s.

Below, 3 compounds whose answers are already recorded.
{"smiles.notation": "FC(F)(F)c1ccc(CNC2CCN(Cc3ccccc3)CC2)cc1", "units.text": "×10⁻⁶ cm/s", "Papp at 18 h, 25 ug/ml": 6.09}
{"smiles.notation": "FC(F)(F)c1ccc(/C=N/C2CCN(Cc3ccccc3)CC2)cc1", "units.text": "×10⁻⁶ cm/s", "Papp at 18 h, 25 ug/ml": 6.24}
{"smiles.notation": "O=[N+]([O-])c1ccc(/C=N/C2CCN(Cc3ccccc3)CC2)cc1", "units.text": "×10⁻⁶ cm/s", "Papp at 18 h, 25 ug/ml": 4.99}

### Prompt Item "O=[N+]([O-])c1ccc(CNC2CCN(Cc3ccccc3)CC2)cc1" has what recorded Papp at 18 h, 25 ug/ml?
### Response 4.41
